B1: TPR 5TU (parent)
chain: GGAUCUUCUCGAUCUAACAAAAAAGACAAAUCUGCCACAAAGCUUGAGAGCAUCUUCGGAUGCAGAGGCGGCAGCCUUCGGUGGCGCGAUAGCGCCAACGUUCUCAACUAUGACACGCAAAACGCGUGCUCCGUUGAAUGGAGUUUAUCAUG

Variants of: B1
assay.explanation: polymerase ribozyme fitness, log enrichment relative to wild type (log ratio); higher = more active; in vitro selection for triplet polymerase activity
Fewer inactive variants are shown than the library holds.
measured.quantity: polymerase ribozyme fitness (log ratio)

variant.code	recorded.value
U33A G74A	≤ -4.2
A22U A30G G46C G50C A52C U55G G83A G94A	≤ -4.2
C38U U55C A64U G94A C103A C125U	≤ -4.2
A20U A30G U53A U55G C63G G141U	≤ -4.2
A66G G81U C87G C99U U104G U134A A142U	≤ -4.2
U13A C85U A107U C125A G126C	≤ -4.2
A30U C54A A97U C116U G117U	≤ -4.2
A17C U82A C85A C93U	≤ -4.2
U53A A110C	≤ -4.2
U45G C54A C87G A121U C123G	≤ -4.2
A16C A17G C57U G86A G133U	≤ -4.2
U4A A20U G50C U55A A73G G84A G88C C132U U135A	≤ -4.2
